biological target: Substance-P receptor (Homo sapiens, UniProt P25103); test: Displacement of [125I]-labeled substance P from human Tachykinin receptor 1 expressed in CHO cells; assay type: cell-based
Sequence (P25103 whole entry): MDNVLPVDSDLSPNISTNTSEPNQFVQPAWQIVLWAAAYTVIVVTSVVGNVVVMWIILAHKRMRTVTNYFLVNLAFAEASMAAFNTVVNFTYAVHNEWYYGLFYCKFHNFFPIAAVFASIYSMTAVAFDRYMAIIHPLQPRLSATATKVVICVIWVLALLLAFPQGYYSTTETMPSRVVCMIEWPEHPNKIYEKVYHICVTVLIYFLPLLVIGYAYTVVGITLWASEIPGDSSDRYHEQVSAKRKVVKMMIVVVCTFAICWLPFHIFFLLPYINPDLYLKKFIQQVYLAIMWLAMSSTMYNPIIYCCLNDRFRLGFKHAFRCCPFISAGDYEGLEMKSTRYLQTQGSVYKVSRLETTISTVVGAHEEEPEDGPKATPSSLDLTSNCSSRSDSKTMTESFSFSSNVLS
Answer each item with its documented IC50.
Numeric answer only, unit nM assumed.

INPUT: Consider the compound shown here: COc1ccc(-n2nnnc2C(F)(F)F)cc1[C@H]1COCC2(C1)OCCN(Cc1n[nH]c(O)n1)[C@H]2c1ccc(F)cc1 (stereo not given in full) What is its recorded IC50?
OUTPUT: 0.1

INPUT: Consider the compound shown here: Fc1ccc([C@@H]2NCCOC23COC[C@H](c2ccccc2C(F)(F)F)C3)cc1 (stereo not given in full) What is its recorded IC50?
OUTPUT: 24

INPUT: Consider the compound shown here: CN(C)Cc1nn[nH]c1CN1CCOC2(CCC(c3ccccc3OC(F)(F)F)CO2)C1c1ccc(F)cc1 (stereo not given) What is its recorded IC50?
OUTPUT: 1.4

INPUT: Consider the compound shown here: COc1ccccc1[C@H]1COCC2(C1)OCCN(Cc1n[nH]c(O)n1)[C@H]2c1ccc(F)cc1 (stereo not given in full) What is its recorded IC50?
OUTPUT: 0.56

INPUT: Consider the compound shown here: COc1cccc([C@H]2COCC3(C2)OCCN[C@H]3c2ccc(F)cc2)c1 (stereo not given in full) What is its recorded IC50?
OUTPUT: 183

INPUT: Consider the compound shown here: COc1ccccc1[C@H]1COCC2(C1)OCCN[C@H]2c1ccc(F)cc1 (stereo not given in full) What is its recorded IC50?
OUTPUT: 13

INPUT: Consider the compound shown here: O=c1[nH]nc(CN2CCOC3(CCC(c4ccccc4)CO3)C2c2ccccc2)[nH]1 (stereo not given) What is its recorded IC50?
OUTPUT: 19

INPUT: Consider the compound shown here: c1ccc(C2CCC3(OCCNC3c3ccccc3)OC2)cc1 (stereo not given) What is its recorded IC50?
OUTPUT: 170

INPUT: Consider the compound shown here: CN(C)Cc1nn[nH]c1CN1CCOC2(CCC(c3ccccc3C(F)(F)F)CO2)C1c1ccc(F)cc1 (stereo not given) What is its recorded IC50?
OUTPUT: 1.1

INPUT: Consider the compound shown here: Fc1ccc([C@@H]2NCCOC23COC[C@H](c2cccc(C(F)(F)F)c2)C3)cc1 (stereo not given in full) What is its recorded IC50?
OUTPUT: 30

INPUT: Consider the compound shown here: Fc1ccc(C2NCCOC23CCC(c2cccc(C(F)(F)F)c2)CO3)cc1 (stereo not given) What is its recorded IC50?
OUTPUT: 513

INPUT: Consider the compound shown here: COc1ccc(OC)c([C@H]2COCC3(C2)OCCN[C@H]3c2ccc(F)cc2)c1 (stereo not given in full) What is its recorded IC50?
OUTPUT: 16

INPUT: Consider the compound shown here: Fc1ccc([C@@H]2NCCOC23COC[C@H](c2ccccc2)C3)cc1 (stereo not given in full) What is its recorded IC50?
OUTPUT: 99

INPUT: Consider the compound shown here: COc1ccc(C(C)C)cc1[C@H]1COCC2(C1)OCCN[C@H]2c1ccc(F)cc1 (stereo not given in full) What is its recorded IC50?
OUTPUT: 2.8

INPUT: Consider the compound shown here: COc1ccc(F)cc1[C@H]1COCC2(C1)OCCN[C@H]2c1ccc(F)cc1 (stereo not given in full) What is its recorded IC50?
OUTPUT: 10
